Tested on: BDF1 mice, s.c. Lewis lung carcinoma, T/C %
experimental.details: NCI In Vivo Anticancer Drug Screen. Data for tumor model Lewis Lung Carcinoma (subcutaneous) in B6D2F1 (BDF1) mice
recorded.conditions: endpoint: median survival time; dose: 3.0 mg/kg/injection; schedule: Q01DX009 (ip); vehicle: saline with Tween-80; higher = longer survival
Inconclusive results are not listed.
endpoint.label: T/C

- molecule: "CC(C)C(=O)[O][Sn]([c]1ccccc1)([c]1ccccc1)[c]1ccccc1"
  reading: "110 % of control"
- molecule: "CCOC(=O)NC1=C(N2CC2)C(=O)C(NC(=O)OCC)=C(N2CC2)C1=O"
  reading: "100 % of control"
- molecule: "CCC[CH2][Sn]1([CH2]CCC)[O]OC(c2ccc(C)cc2)[O]1 (stereo not given)"
  reading: "119 % of control"
- molecule: "Cc1cccc(NC(=O)N(CCCl)N=O)c1"
  reading: "92 % of control"
- molecule: "CC[CH2][Pb]([CH2]CC)([CH2]CC)[O]C(=O)C(Cl)(Cl)Cl"
  reading: "106 % of control"

###

System: BDF1 mice, s.c. Lewis lung carcinoma, T/C %
experimental.details: NCI In Vivo Anticancer Drug Screen. Data for tumor model Lewis Lung Carcinoma (subcutaneous) in B6D2F1 (BDF1) mice
recorded.conditions: endpoint: median survival time; dose: 1.5 mg/kg/injection; schedule: Q01DX009 (ip); vehicle: saline; higher = longer survival
Records with an inconclusive call do not appear.

- compound: "CC1C[N-]CC(C)C1.CC1C[N-]CC(C)C1.CC1C[N-]CC(C)C1.CC1C[N-]CC(C)C1.[Cl][Rh][Cl] (centres undefined)"
  T/C: "104 % of control"
- compound: "N[C@@H](Cc1ccc(N(CCCl)CCCl)cc1)C(=O)O"
  T/C: "93 % of control"
- compound: "O=C1NC2(CCCCC2)C(=O)N1CCN(CCCl)CCCl"
  T/C: "91 % of control"
- compound: "Cc1ccc(S(=O)(=O)[O][Pb]([CH3])([CH3])[CH3])cc1"
  T/C: "109 % of control"

###

Tested on: BDF1 mice, s.c. Lewis lung carcinoma, T/C %
experimental.details: NCI In Vivo Anticancer Drug Screen. Data for tumor model Lewis Lung Carcinoma (subcutaneous) in B6D2F1 (BDF1) mice
recorded.conditions: endpoint: median survival time; dose: 1.0 mg/kg/injection; schedule: Q01DX009 (ip); vehicle: Klucel (hydroxypropylcellulose) (HPC); higher = longer survival
Method: The antitumor activity of compounds was measured in mice bearing transplantable tumors. Survival or tumor size were measured and the results are expressed as the measurement made in the treated group (T) divided by the measurement made in the vehicle treated control group (C). The tumor model used in this assay is Lewis Lung Carcinoma (subcutaneous) in B6D2F1 (BDF1) mice
Results filed as inconclusive are left out.
T/C values for the molecules below.

- molecule: "O=C1CC(c2ccc(OCN(CCCl)CCCl)cc2)CC(=O)C1CN(CCCl)CCCl (stereo not drawn)"
  T/C: "123 % of control"
- molecule: "Cc1c(N)nc(C(CC(N)=O)NCC(N)C(N)=O)nc1C(=O)NC(C(=O)NC(C)C(O)C(C)C(=O)NC(C(=O)NCCc1nc(-c2nc(C(=O)NCCC[S+](C)C)cs2)cs1)C(C)O)C(OC1OC(CO)C(O)C(O)C1OC1OC(CO)C(O)C(OC(N)=O)C1O)c1cnc[nH]1 (stereo not drawn)"
  T/C: "121 % of control"
- molecule: "CN(Cc1cnc2nc(N)nc(N)c2n1)c1ccc(C(=O)N[C@@H](CCC(=O)O)C(=O)O)cc1"
  T/C: "112 % of control"
- molecule: "O=C1c2ccccc2C(=O)c2c(NCCNCCO)ccc(NCCNCCO)c21"
  T/C: "101 % of control"
- molecule: "COC(COC(N)=O)C1=C(N2CC2)C(=O)C(C)=C(N2CC2)C1=O (stereo not drawn)"
  T/C: "93 % of control"
- molecule: "O=P(NC12CC3CC(CC(C3)C1)C2)(N1CC1)N1CC1"
  T/C: "92 % of control"
- molecule: "CC(C)C[CH2][Pb]([Cl])([CH2]CC(C)C)[CH2]CC(C)C"
  T/C: "93 % of control"
- molecule: "N[C@@H](Cc1ccc(N(CCCl)CCCl)cc1)C(=O)O"
  T/C: "107 % of control"

###

System: BDF1 mice, s.c. Lewis lung carcinoma, T/C %
experimental.details: NCI In Vivo Anticancer Drug Screen. Data for tumor model Lewis Lung Carcinoma (subcutaneous) in B6D2F1 (BDF1) mice
recorded.conditions: endpoint: median survival time; dose: 1.0 mg/kg/injection; schedule: Q01DX009 (ip); vehicle: Klucel (hydroxypropylcellulose) (HPC)
Inconclusive results are not listed. The calls were made as follows: active = survival T/C of 150% or more; inactive = T/C below 125% in these data.
Classes used: class 1 for active, class 0 for inactive

- molecule: "Cc1c2cc3c(c1O)C(=O)CC(O3)c1ccc(O)c(c1)-c1ccc(O)c(c1)C(=O)OCC1OC(O2)C(O)C(O)C1O (stereo not given)"
  class.assignment: "class 0"
- molecule: "Nc1nc(=S)c2[nH]cnc2[nH]1"
  class.assignment: "class 0"
- molecule: "C[n+]1ccc(Nc2ccc(NC(=O)c3ccc(Nc4cc[n+](C)c5ccc(N)cc45)cc3)cc2)cc1"
  class.assignment: "class 1"
- molecule: "COC1=C(N2CC2)C(=O)C(OC)=C(N2CC2)C1=O"
  class.assignment: "class 0"
- molecule: "NC(Cc1cc([N+](=O)[O-])ccc1CN(CCCl)CCCl)C(=O)O (stereo not given)"
  class.assignment: "class 0"
- molecule: "CC[C@@]1(O)C(=O)OCc2c1cc1n(c2=O)Cc2cc3c(OC)cccc3nc2-1"
  class.assignment: "class 1"
- molecule: "Nc1nc(N)c2nc(CN(CCO)c3ccc(C(=O)NC(CCC(=O)O)C(=O)O)cc3)cnc2n1 (stereo not given)"
  class.assignment: "class 0"
- molecule: "CC[C@H]1CN2CCc3cc(OC)c(OC)cc3[C@@H]2C[C@@H]1C[C@H]1NCCc2c1[nH]c1ccc(O)cc21"
  class.assignment: "class 0"
- molecule: "COC(=O)[C@H]1[C@H]2C[C@@H]3c4[nH]c5cc(OC)ccc5c4CCN3C[C@H]2C[C@@H](OC(=O)c2cc(OC)c(OC)c(OC)c2)[C@@H]1OC"
  class.assignment: "class 0"
- molecule: "COc1ccc2cc3[n+](cc2c1OC)CCc1cc2c(cc1-3)OCO2"
  class.assignment: "class 0"

###

Test system: BDF1 mice, s.c. Lewis lung carcinoma, T/C %
experimental.details: NCI In Vivo Anticancer Drug Screen. Data for tumor model Lewis Lung Carcinoma (subcutaneous) in B6D2F1 (BDF1) mice
recorded.conditions: endpoint: median survival time; dose: 6.25 mg/kg/injection; schedule: Q01DX009 (ip); vehicle: Klucel (hydroxypropylcellulose) (HPC); higher = longer survival
Records with an inconclusive call do not appear.

- molecule: "Nc1nc2c(ncn2C2OC(CO)C(O)C2N)c(=O)[nH]1 (stereo unspecified)"
  T/C: "102 % of control"
- molecule: "Cc1ccc(NC(=O)N(CCCl)N=O)cc1C"
  T/C: "87 % of control"
- molecule: "CC(C)=CCC(OC(=O)C=C(C)C)C1=CC(=O)c2c(O)ccc(O)c2C1=O (stereo unspecified)"
  T/C: "104 % of control"
- molecule: "Nc1nc(=S)c2[nH]c(N=Nc3ccc(S(=O)(=O)Nc4ncccn4)cc3)nc2[nH]1"
  T/C: "105 % of control"
- molecule: "COc1cc(NS(C)(=O)=O)ccc1Nc1c2ccccc2nc2ccccc12"
  T/C: "115 % of control"
- molecule: "CCO/C=C1\\SC(=S)N(c2ccccc2OC)C1=O"
  T/C: "109 % of control"

###

Test system: BDF1 mice, s.c. Lewis lung carcinoma, T/C %
experimental.details: NCI In Vivo Anticancer Drug Screen. Data for tumor model Lewis Lung Carcinoma (subcutaneous) in B6D2F1 (BDF1) mice
recorded.conditions: endpoint: mean tumor weight; dose: 25.0 mg/kg/injection; schedule: Q01DX011 (ip); vehicle: other; higher = larger tumour
Method: The antitumor activity of compounds was measured in mice bearing transplantable tumors. Survival or tumor size were measured and the results are expressed as the measurement made in the treated group (T) divided by the measurement made in the vehicle treated control group (C). The tumor model used in this assay is Lewis Lung Carcinoma (subcutaneous) in B6D2F1 (BDF1) mice
Results filed as inconclusive are left out.

- compound: "CCN(CC)CCNc1ccc([N+](=O)[O-])c2sc3ccccc3c(=O)c12"
  T/C: "102 % of control"
- compound: "Clc1ncnc2c1ncn2C1CCCO1 (stereo unspecified)"
  T/C: "91 % of control"
- compound: "O=c1n(CCCl)c(=O)n(CCCl)c(=O)n1CCCl"
  T/C: "121 % of control"
- compound: "c1ccc(CSc2ncnc3nc[nH]c23)nc1"
  T/C: "59 % of control"
- compound: "Cc1ccc(N2CCN(CCCN3CCN(c4ccc(Cl)cc4)CC3)CC2)cc1"
  T/C: "108 % of control"
- compound: "CC(C)Sc1nc(N)nc2nc[nH]c12"
  T/C: "95 % of control"
- compound: "Nc1nc(SCc2ccccc2Cl)c2ncn(C3OC(CO)C(O)C3O)c2n1 (stereo unspecified)"
  T/C: "49 % of control"
- compound: "Cc1cc(O)c(C(C)C)cc1S(=O)(=O)O (tested in a mixture with another compound)"
  T/C: "95 % of control"
- compound: "S=c1nc[nH]c2c1ncn2C1CCCO1 (stereo unspecified)"
  T/C: "86 % of control"
- compound: "Clc1cccc(Br)c1"
  T/C: "95 % of control"
- compound: "CCCn1cnc2c(SCc3ccccc3Cl)nc(N)nc21"
  T/C: "66 % of control"
